Data provenance is PubChem BioAssay AID1199.

# reported Potency; entries follow
- Tested on: mouse carcinogenicity bioassay, TD50 from CPDB
- assay-procedure: DSSTox (CPDBAS) Carcinogenic Potency Database Summary Mouse Bioassay Results
- experimental-parameters: TD50_Mouse_Note: TD50 is harmonic mean of more than one positive test; TargetSites_Mouse_Female: hematopoietic system; lung
observable: Potency

smiles_notation=NNC(=O)c1ccccc1 meas_value="0.0704 mmol/kg/day"
smiles_notation=Cc1ncc([N+](=O)[O-])n1CCO meas_value="2.96 mmol/kg/day"
smiles_notation=CCCCNNCCCC meas_value="0.213 mmol/kg/day"
smiles_notation=O=c1[nH]cc(F)c(=O)[nH]1 meas_value="0.0228 mmol/kg/day"

###

- System: mouse carcinogenicity bioassay, TD50 from CPDB
- assay-procedure: DSSTox (CPDBAS) Carcinogenic Potency Database Summary Mouse Bioassay Results
- experimental-parameters: TD50_Mouse_Note: TD50 is harmonic mean of more than one positive test; greater than ten-fold variation among TD50 values for positive res; TargetSites_Mouse_Female: stomach
observable: Potency

smiles_notation=NC(=O)/C(=C\c1ccc([N+](=O)[O-])o1)c1ccco1 meas_value="0.528 mmol/kg/day"

###

- Test system: mouse carcinogenicity bioassay, TD50 from CPDB
- assay-procedure: DSSTox (CPDBAS) Carcinogenic Potency Database Summary Mouse Bioassay Results
- experimental-parameters: TD50_Mouse_Note: positive test results only by intraperitoneal or intravenous injection; TD50 is harmonic mean of more than one positive; TargetSites_Mouse_Female: hematopoietic system; lung; uterus; vascular system
observable: Potency

smiles_notation=CN(C)/N=N/c1nc[nH]c1C(N)=O meas_value="0.0053 mmol/kg/day"

###

// values below are reported Potency
- Test system: mouse carcinogenicity bioassay, TD50 from CPDB
- assay-procedure: DSSTox (CPDBAS) Carcinogenic Potency Database Summary Mouse Bioassay Results
- experimental-parameters: TD50_Mouse_Note: TD50 is harmonic mean of more than one positive test; TargetSites_Mouse_Female: all tumor bearing animals
- From the text: The Carcinogenic Potency Database (CPDB) is a unique and widely used international resource of the results of over 6500 chronic, long-term animal cancer tests on over 1500 chemical substances. The CPDB provides easy access to the bioassay literature, with qualitative and quantitative analyses of both positive and negative experiments that have been published over the past 50 years in the general literature and by the National Cancer Institute/National Toxicology Program. […]
observable: Potency

smiles_notation=OCCN(CCO)CCO meas_value="0.67 mmol/kg/day"
smiles_notation=O=S(=O)(O)NC1CCCCC1 meas_value="3.31 mmol/kg/day"

###

- Tested on: mouse carcinogenicity bioassay, TD50 from CPDB
- assay-procedure: DSSTox (CPDBAS) Carcinogenic Potency Database Summary Mouse Bioassay Results
- experimental-parameters: TD50_Mouse_Note: TD50 is harmonic mean of more than one positive test; TargetSites_Mouse_Female: hematopoietic system
- Description: The Carcinogenic Potency Database (CPDB) is a unique and widely used international resource of the results of over 6500 chronic, long-term animal cancer tests on over 1500 chemical substances. The CPDB provides easy access to the bioassay literature, with qualitative and quantitative analyses of both positive and negative experiments that have been published over the past 50 years in the general literature and by the National Cancer Institute/National Toxicology Program. […]
observable: Potency

smiles_notation=Cn1c(N)nc2ncc(-c3ccccc3)cc21 observable=Potency meas_value="0.127 mmol/kg/day"
smiles_notation=O=C1C=CC(=O)C=C1 observable=Potency meas_value="0.0469 mmol/kg/day"
smiles_notation=NC(=O)N(CCO)N=O observable=Potency meas_value="0.00615 mmol/kg/day"
